- Target desc: T1, mANGPTL3(17-455)-His (Mus musculus, UniProt Q9R182 17-455)
- T1 construct: Bought protein (R&D Systems); also called full-length mature ANGPTL3 from Mus musculus with a C-terminal decahistidine tag
- T1 sequence: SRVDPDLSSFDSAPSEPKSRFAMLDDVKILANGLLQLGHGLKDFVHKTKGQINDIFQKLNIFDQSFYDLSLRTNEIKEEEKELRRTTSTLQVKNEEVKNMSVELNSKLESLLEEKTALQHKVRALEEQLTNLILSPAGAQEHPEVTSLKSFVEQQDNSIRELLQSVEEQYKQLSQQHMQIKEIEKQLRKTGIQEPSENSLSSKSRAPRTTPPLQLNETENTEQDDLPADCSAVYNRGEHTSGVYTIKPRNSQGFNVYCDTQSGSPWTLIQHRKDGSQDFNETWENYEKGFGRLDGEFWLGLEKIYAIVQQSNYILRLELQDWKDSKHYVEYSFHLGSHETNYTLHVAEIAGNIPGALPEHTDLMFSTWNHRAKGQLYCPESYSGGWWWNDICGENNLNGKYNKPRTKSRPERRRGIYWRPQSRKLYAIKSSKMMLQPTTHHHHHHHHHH
- Experimental details: SPR Biacore, antigen captured, 37C, pH 7.4, HBS-EP
Measured Kd by item
Hi! Could you send only the number? It should be in nM, unit omitted.

Consider the worked cases shown below.
| Binder | Units text | Kd |
| --- | --- | --- |
| H4H1250P (antibody, IgG4, V domains shown) VH: QVQLVESGGGVVQPGRSLRLSCAASGFTFSSYGMHWVRQAPGKGLEWVAVISNDGSNKYYVDSVKGRFTMGRDNSKNTLYLQMNSLRVEDTAVYYCAKGAGTLYYYYYGMDVWGQGTTVTVSS VL: DIQMTQSPSTLSASVGNRVTITCRASQSISSWLAWYQQKPGKAPKFLIYKASSLESGVPSRFSGSGSGTEFTLTITSLQPDDFATYYCQQYNIYSWTFGQGTKVEIK | nM | 0.486 |
| H4H1292P (antibody, IgG4, V domains shown) VH: QVQLVESGGGLVKPGGSLRLSCAASGFTFSDYYMSWIRQAPGKGLEWVSYISSSGSTIYYADSVKGRFTISRDNAKNSLYLQMNSLRAEDTAVYYCARDSSQLGFDYWGQGTLVTVSS VL: DIQMTQSPSSLSASVGDRVTITCRASQSIISFLNWYQQKPGKAPKLLIYTASSLQSGVPSRFSGSGSGTDFTLTISSLQPEDFATYYCQQTYSNPLTFGGGTKVEIKR | nM | 0.38 |
| H4H1279P (antibody, IgG4, V domains shown) VH: QVQLVESGGGLVKPGGSLRLSCAASGFTFSDYYMSWIRQAPGKGLEWVSYIGSSGVNMYYADSVKGRFTISRDNAKNSLYLEMNSLRAEDTAVYYCARDSSQLGFDYWGQGTLVTVSS VL: DIQMTQSPSSLSASVGDRVTITCRTSQNIINFLNWYQQKPGKAPKLLIYTTSTLQSGVPSRFSGSGSGTDFTLSINSLQPEDFATYFCQQTYSNPLTFGGGTKLEIKR | nM | 0.167 |

Moving on to the next binder.
Given H1M896N (antibody, V domains shown) VH: EVQLLESGGGLVQPGGSLRLSCAASGFTFSTYAMSWVRQAPGKGLEGVSGISGTGYRTYYADSVKGRFTISRDNSKNSLYLQMNSLRAEDTAVYYCAKDRGLLWFGELTYWGQGTLVTVSS VL: DIQMTQSPSTLSASVGDRVTITCRASQSINNWLAWYQQKPGKAPNLLIYKASSLESGVPSRFSGSGSGTEFTLTISSLQPDDFATYYCQQYNDYWTFGQGTKVEIK , state its recorded Kd.
0.682
